Source listed as PubChem BioAssay AID2060336.

Tested on: 958767-090-R-J1-PDC spheroid growth
method-description: Anticancer human tumor 958767-090-R-J1-PDC patient-derived head and neck squamous carcinoma cell line growth inhibition [IpAb]
run-conditions: second compound 1 µM; first compound 0.01 µM; hits give low values; spheroids with HUVEC and MSC
Assignment: determine reported viability, T/C for the given molecules.
Provide only the numeric value, understood in %.

Q: Lookup: viability, T/C / 958767-090-R-J1-PDC spheroid growth / COc1c(OCCCN2CCOCC2)ccc2c3n(c(=NC(=O)c4cnc(N)nc4)nc12)CCN3 + CCN1CCN(Cc2ccc(Nc3ncc(F)c(-c4cc(F)c5nc(C)n(C(C)C)c5c4)n3)nc2)CC1
Result: 53.5

Q: Now give it for CC(C)n1nc(-c2ccc3oc(N)nc3c2)c2c(N)ncnc21 + CCN1CCN(Cc2ccc(Nc3ncc(F)c(-c4cc(F)c5nc(C)n(C(C)C)c5c4)n3)nc2)CC1 too.
Result: 68.4

Q: Next molecule up: COc1c(OCCCN2CCOCC2)ccc2c3n(c(=NC(=O)c4cnc(N)nc4)nc12)CCN3 + CC(C)NCC(C(=O)N1CCN(c2ncnc3c2C(C)CC3O)CC1)c1ccc(Cl)cc1
Result: 32.6

Q: Subsequent entry: Cn1ncnc1[C@H]1c2n[nH]c(=O)c3cc(F)cc(c23)N[C@@H]1c1ccc(F)cc1 + CC(C)NCC(C(=O)N1CCN(c2ncnc3c2C(C)CC3O)CC1)c1ccc(Cl)cc1
Result: 74.2

Q: And CC(C)n1nc(-c2ccc3oc(N)nc3c2)c2c(N)ncnc21 + CC(C)NCC(C(=O)N1CCN(c2ncnc3c2C(C)CC3O)CC1)c1ccc(Cl)cc1 ?
Result: 34

Q: Can you handle Cn1ncnc1[C@H]1c2n[nH]c(=O)c3cc(F)cc(c23)N[C@@H]1c1ccc(F)cc1 + CCN1CCN(Cc2ccc(Nc3ncc(F)c(-c4cc(F)c5nc(C)n(C(C)C)c5c4)n3)nc2)CC1 next?
Result: 60.2

====

Test system: 958767-090-R-J1-PDC spheroid growth
method-description: Anticancer human tumor 958767-090-R-J1-PDC cell line growth inhibition [IpAb];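 note: spheroids exposed to agents for 7 days; 100% = DMSO vehicle control wells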
run-conditions: second compound 1 µM; first compound 0.00316 µM; hits give low values; spheroids with HUVEC and MSC
Description: Combinatorial screen of targeted agents with ipatasertib and abemaciclib in multi-cell type tumor spheroids […] Compounds. […] If the clinical Cmax for an agent had not been determined, the highest concentration tested was 10 microM. NCI60 Cell Culture. […] The optimal seeding densities for each of the cell lines at each time point assessed were determined prior to performing the concentration response studies. […]
For each entry below, report its viability, T/C value.

Q: viability, T/C for CC(C)n1nc(-c2ccc3oc(N)nc3c2)c2c(N)ncnc21 + CC(C)NCC(C(=O)N1CCN(c2ncnc3c2C(C)CC3O)CC1)c1ccc(Cl)cc1 ?
Result: 40.7%

Q: And what about the compound CC(C)n1nc(-c2ccc3oc(N)nc3c2)c2c(N)ncnc21 + CCN1CCN(Cc2ccc(Nc3ncc(F)c(-c4cc(F)c5nc(C)n(C(C)C)c5c4)n3)nc2)CC1 ?
Result: 64.8%

Q: # repeat for Cn1ncnc1[C@H]1c2n[nH]c(=O)c3cc(F)cc(c23)N[C@@H]1c1ccc(F)cc1 + CC(C)NCC(C(=O)N1CCN(c2ncnc3c2C(C)CC3O)CC1)c1ccc(Cl)cc1
Result: 72.2%

Q: And the next one, COc1c(OCCCN2CCOCC2)ccc2c3n(c(=NC(=O)c4cnc(N)nc4)nc12)CCN3 + CCN1CCN(Cc2ccc(Nc3ncc(F)c(-c4cc(F)c5nc(C)n(C(C)C)c5c4)n3)nc2)CC1 ?
Result: 74.1%

Q: Try this compound next: Cn1ncnc1[C@H]1c2n[nH]c(=O)c3cc(F)cc(c23)N[C@@H]1c1ccc(F)cc1 + CCN1CCN(Cc2ccc(Nc3ncc(F)c(-c4cc(F)c5nc(C)n(C(C)C)c5c4)n3)nc2)CC1
Result: 70.5%

Q: What do you get for COc1c(OCCCN2CCOCC2)ccc2c3n(c(=NC(=O)c4cnc(N)nc4)nc12)CCN3 + CC(C)NCC(C(=O)N1CCN(c2ncnc3c2C(C)CC3O)CC1)c1ccc(Cl)cc1 ?
Result: 42.1%

====

System: 958767-090-R-J1-PDC spheroid growth
method-description: Anticancer human tumor 958767-090-R-J1-PDC cell line growth inhibition [IpAb];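 note: spheroids exposed to agents for 7 days; 100% = DMSO vehicle control wells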
run-conditions: second compound 1 µM; first compound 0.0949 µM; hits give low values; spheroids with HUVEC and MSC
property-name: viability, T/C (%)
Number only, in %; omit the unit.

Q: Dear colleague, I am looking for the recorded viability, T/C of the following compound: Cn1cnc2c(F)c(Nc3ccc(Br)cc3Cl)c(C(=O)NOCCO)cc21 + CC(C)NCC(C(=O)N1CCN(c2ncnc3c2C(C)CC3O)CC1)c1ccc(Cl)cc1
Result: 15.2

Q: Would you kindly repeat that for CC(C)(C)c1cnc(CSc2cnc(NC(=O)C3CCNCC3)s2)o1 + CCN1CCN(Cc2ccc(Nc3ncc(F)c(-c4cc(F)c5nc(C)n(C(C)C)c5c4)n3)nc2)CC1 ?
Result: 9.34

Q: Moving on to CC(=O)c1c(C)c2cnc(Nc3ccc(N4CCNCC4)cn3)nc2n(C2CCCC2)c1=O + CCN1CCN(Cc2ccc(Nc3ncc(F)c(-c4cc(F)c5nc(C)n(C(C)C)c5c4)n3)nc2)CC1
Result: 62.2

====

Task for the reader: assign each of the following compounds its reported viability, T/C.
Test system: 958767-090-R-J1-PDC spheroid growth
method-description: Anticancer human tumor 958767-090-R-J1-PDC cell line growth inhibition [IpAb];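 note: spheroids exposed to agents for 7 days; 100% = DMSO vehicle control wells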
run-conditions: second compound 0.0316 µM; first compound 0.0316 µM; hits give low values; spheroids with HUVEC and MSC
Write the answer as a number in %, unit excluded.

Q: I'm curious: which viability, T/C was measured for C=CC(=O)N1CCN(c2nc(=O)n(-c3c(C)ccnc3C(C)C)c3nc(-c4c(O)cccc4F)c(F)cc23)C(C)C1 (stereo not drawn) + CCN1CCN(Cc2ccc(Nc3ncc(F)c(-c4cc(F)c5nc(C)n(C(C)C)c5c4)n3)nc2)CC1 tested on 958767-090-R-J1-PDC spheroid growth?
Result: 82.4

Q: And what about the compound CC(C)n1nc(-c2ccc3oc(N)nc3c2)c2c(N)ncnc21 + CCN1CCN(Cc2ccc(Nc3ncc(F)c(-c4cc(F)c5nc(C)n(C(C)C)c5c4)n3)nc2)CC1 ?
Result: 40.5

Q: Query Cn1ncc(Cl)c1-c1cc(C(=O)NC(CN)Cc2cccc(F)c2)sc1Cl (stereo not drawn) + CCN1CCN(Cc2ccc(Nc3ncc(F)c(-c4cc(F)c5nc(C)n(C(C)C)c5c4)n3)nc2)CC1 next
Result: 75.1

====

Tested on: 958767-090-R-J1-PDC spheroid growth
method-description: Anticancer human tumor 958767-090-R-J1-PDC cell line growth inhibition [IpAb]; active = viability on the fitted dose curve at most 10% of control; inactive = the rest;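 note: spheroids exposed to agents for 7 days; 100% = DMSO vehicle control wells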
run-conditions: second compound 0.1 µM; first compound 3 µM; spheroids with HUVEC and MSC
Answer with one of the outcomes active, inactive

Q: Check the results log: what was the call for CC(C)(C)c1cnc(CSc2cnc(NC(=O)C3CCNCC3)s2)o1 + CCN1CCN(Cc2ccc(Nc3ncc(F)c(-c4cc(F)c5nc(C)n(C(C)C)c5c4)n3)nc2)CC1 ?
Result: active

Q: Please give the result for Cn1cnc2c(F)c(Nc3ccc(Br)cc3Cl)c(C(=O)NOCCO)cc21 + CC(C)NCC(C(=O)N1CCN(c2ncnc3c2C(C)CC3O)CC1)c1ccc(Cl)cc1 too.
Result: inactive

Q: Then this compound: Cn1cnc2c(F)c(Nc3ccc(Br)cc3Cl)c(C(=O)NOCCO)cc21 + CCN1CCN(Cc2ccc(Nc3ncc(F)c(-c4cc(F)c5nc(C)n(C(C)C)c5c4)n3)nc2)CC1
Result: inactive

Q: Then CC(C)(C)c1cnc(CSc2cnc(NC(=O)C3CCNCC3)s2)o1 + CC(C)NCC(C(=O)N1CCN(c2ncnc3c2C(C)CC3O)CC1)c1ccc(Cl)cc1 ?
Result: active

====

Test system: 958767-090-R-J1-PDC spheroid growth
method-description: Anticancer human tumor 958767-090-R-J1-PDC cell line growth inhibition [IpAb];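 note: spheroids exposed to agents for 7 days; 100% = DMSO vehicle control wells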
run-conditions: second compound 0.0316 µM; first compound 0.0316 µM; hits give low values; spheroids with HUVEC and MSC
property-name: viability, T/C

Q: Item Cn1nccc1Nc1nccc(-c2ccn(C(CO)c3ccc(Cl)c(F)c3)c(=O)c2)n1 (configuration not stated) + CCN1CCN(Cc2ccc(Nc3ncc(F)c(-c4cc(F)c5nc(C)n(C(C)C)c5c4)n3)nc2)CC1 with 958767-090-R-J1-PDC spheroid growth - viability, T/C?
Result: 69.3%

Q: What about CCCS(=O)(=O)Nc1ccc(F)c(C(=O)c2c[nH]c3ncc(-c4ccc(Cl)cc4)cc23)c1F + CCN1CCN(Cc2ccc(Nc3ncc(F)c(-c4cc(F)c5nc(C)n(C(C)C)c5c4)n3)nc2)CC1 ?
Result: 88.5%

Q: // query: Cc1nc(NC(=O)N2CCCC2C(N)=O)sc1-c1ccnc(C(C)(C)C(F)(F)F)c1 (configuration not stated) + CCN1CCN(Cc2ccc(Nc3ncc(F)c(-c4cc(F)c5nc(C)n(C(C)C)c5c4)n3)nc2)CC1
Result: 57.6%

Q: Thanks! And Cn1ncnc1[C@H]1c2n[nH]c(=O)c3cc(F)cc(c23)N[C@@H]1c1ccc(F)cc1 + CCN1CCN(Cc2ccc(Nc3ncc(F)c(-c4cc(F)c5nc(C)n(C(C)C)c5c4)n3)nc2)CC1 ?
Result: 52.8%

Q: Note, next up: COc1c(OCCCN2CCOCC2)ccc2c3n(c(=NC(=O)c4cnc(N)nc4)nc12)CCN3 + CCN1CCN(Cc2ccc(Nc3ncc(F)c(-c4cc(F)c5nc(C)n(C(C)C)c5c4)n3)nc2)CC1
Result: 28.5%

Q: What do you get for C=CCn1c(=O)c2cnc(Nc3ccc(N4CCN(C)CC4)cc3)nc2n1-c1cccc(C(C)(C)O)n1 + CCN1CCN(Cc2ccc(Nc3ncc(F)c(-c4cc(F)c5nc(C)n(C(C)C)c5c4)n3)nc2)CC1 ?
Result: 79.6%

Q: Also, CC1(C)CCC(CN2CCN(c3ccc(C(=O)NS(=O)(=O)c4ccc(NCC5CCOCC5)c([N+](=O)[O-])c4)c(Oc4cnc5[nH]ccc5c4)c3)CC2)=C(c2ccc(Cl)cc2)C1 + CCN1CCN(Cc2ccc(Nc3ncc(F)c(-c4cc(F)c5nc(C)n(C(C)C)c5c4)n3)nc2)CC1 please.
Result: 75.5%
